Assay: Compound toxicity, ATPLite total ATP levels
Format: cell-based
Conditions: human, HepG2 cells; concentration reducing total ATP levels by 50% relative to no drug controls; ATPLite three days after compound addition

COMPOUND: O=S(=O)(N[C@H]1CC2=C(c3ccn(C(F)F)n3)[C@H](c3ccc(F)cc3Cl)N=C(c3nccs3)N2C1)c1cccnc1 [Example 365]
CC50 at 3 days: > 25 µM
--
COMPOUND: O=C1NC[C@@H](CNC(=O)c2cccc(S(=O)(=O)N[C@H]3CC4=C(c5ccn(C(F)F)n5)[C@H](c5ccc(F)cc5Cl)N=C(c5nccs5)N4C3)c2)O1 [Example 420]
CC50 at 3 days: > 25 µM
--
COMPOUND: O=S1(=O)CCN(S(=O)(=O)N[C@H]2CC3=C(c4ccn(C(F)F)n4)[C@H](c4ccc(F)cc4Cl)N=C(c4nccs4)N3C2)CC1 [Example 150]
CC50 at 3 days: > 25 µM
--
COMPOUND: CS(=O)(=O)C1CN(S(=O)(=O)N[C@H]2CC3=C(c4ccn(C(F)F)n4)[C@H](c4ccc(F)cc4Cl)N=C(c4nccs4)N3C2)C1 [Example 337]
CC50 at 3 days: > 25 µM
--
COMPOUND: O=S(=O)(N[C@H]1CC2=C(c3ccn(C(F)F)n3)[C@H](c3ccc(F)cc3Cl)N=C(c3nccs3)N2C1)N1CCC(F)(F)C1 [Example 276]
CC50 at 3 days: < 10 µM
--
COMPOUND: O=S(=O)(N[C@H]1CC2=C(c3ccn(C(F)F)n3)[C@H](c3ccc(F)cc3Cl)N=C(c3nccs3)N2C1)c1cccc(F)c1 [Example 386]
CC50 at 3 days: 10 to 25 µM
--
COMPOUND: CS(=O)(=O)Nc1ccc(S(=O)(=O)N[C@H]2CC3=C(c4ccn(C(F)F)n4)[C@H](c4ccc(F)cc4Cl)N=C(c4nccs4)N3C2)cc1 [Example 357]
CC50 at 3 days: > 25 µM
--
COMPOUND: Cn1ccc(S(=O)(=O)N[C@H]2CC3=C(c4ccn(C(F)F)n4)[C@H](c4ccc(F)cc4Cl)N=C(c4nccs4)N3C2)n1 [Example 394]
CC50 at 3 days: > 25 µM
--
COMPOUND: O=S1(=O)NCCN1[C@H]1CC2=C(c3ccn(C(F)F)n3)[C@H](c3ccc(F)cc3Cl)N=C(c3nccs3)N2C1 [Example 376]
CC50 at 3 days: > 25 µM
--
COMPOUND: O=S(=O)(N[C@H]1CC2=C(c3ccn(C(F)F)n3)[C@H](c3ccc(F)cc3Cl)N=C(c3nccs3)N2C1)c1ccccn1 [Example 364]
CC50 at 3 days: > 25 µM
--
COMPOUND: O=S(=O)(N[C@H]1CC2=C(c3ccn(C(F)F)n3)[C@H](c3ccc(F)cc3Cl)N=C(c3nccs3)N2C1)N1CCC(O)(c2ccccn2)CC1 [Example 266]
CC50 at 3 days: > 25 µM
--
COMPOUND: O=S(=O)(N[C@H]1CC2=C(c3ccn(C(F)F)n3)[C@H](c3ccc(F)cc3Cl)N=C(c3nccs3)N2C1)c1ccc(C(O)c2ccccn2)cc1 (stereo partly drawn) [Example 334]
CC50 at 3 days: < 10 µM
--
COMPOUND: O=S(=O)(N[C@H]1CC2=C(c3ccn(C(F)F)n3)[C@H](c3ccc(F)cc3Cl)N=C(c3nccs3)N2C1)N1CCOCC1 [Example 74]
CC50 at 3 days: > 25 µM
--
COMPOUND: O=S(=O)(N[C@H]1CC2=C(c3ccn(C(F)F)n3)[C@H](c3ccc(F)cc3Cl)N=C(c3nccs3)N2C1)[C@H]1CC[C@@H](O)CC1 [Example 99]
CC50 at 3 days: > 25 µM
--
COMPOUND: O=S(=O)(N[C@H]1CC2=C(c3ccn(C(F)F)n3)[C@H](c3ccc(F)cc3Cl)N=C(c3nccs3)N2C1)N1CCC[C@@H](O)C1 [Example 94]
CC50 at 3 days: > 25 µM
--
COMPOUND: O=S(=O)(N[C@H]1CC2=C(c3ccn(C(F)F)n3)[C@H](c3ccc(F)cc3Cl)N=C(c3nccs3)N2C1)C1CCC1 [Example 324]
CC50 at 3 days: 10 to 25 µM
--
COMPOUND: COCCNS(=O)(=O)N[C@H]1CC2=C(c3ccn(C(F)F)n3)[C@H](c3ccc(F)cc3Cl)N=C(c3nccs3)N2C1 [Example 80]
CC50 at 3 days: > 25 µM
--
COMPOUND: O=S(=O)(N[C@H]1CC2=C(c3ccn(C(F)F)n3)[C@H](c3ccc(F)cc3Cl)N=C(c3nccs3)N2C1)c1ccccc1 [Example 367]
CC50 at 3 days: > 25 µM
--
COMPOUND: O=S(=O)(N[C@H]1CC2=C(c3ccn(C(F)F)n3)[C@H](c3ccc(F)cc3Cl)N=C(c3nccs3)N2C1)[C@H]1C[C@](O)(c2ccccn2)C1 [Example 371]
CC50 at 3 days: 10 to 25 µM
--
COMPOUND: O=S(=O)(N[C@H]1CC2=C(c3ccn(C(F)F)n3)[C@H](c3ccc(F)cc3Cl)N=C(c3nccs3)N2C1)c1ccc([C@H]2CC[C@H](O)CC2)cc1 [Example 381]
CC50 at 3 days: 10 to 25 µM
--
COMPOUND: CS(=O)(=O)CS(=O)(=O)N[C@H]1CC2=C(c3ccn(C(F)F)n3)[C@H](c3ccc(F)cc3Cl)N=C(c3nccs3)N2C1 [Example 335]
CC50 at 3 days: > 25 µM
--
COMPOUND: O=S(=O)(N[C@H]1CC2=C(c3ccn(C(F)F)n3)[C@H](c3ccc(F)cc3Cl)N=C(c3nccs3)N2C1)c1cn[nH]c1 [Example 20]
CC50 at 3 days: > 25 µM
--
COMPOUND: O=S(=O)(N[C@H]1CC2=C(c3ccn(C(F)F)n3)[C@H](c3ccc(F)cc3Cl)N=C(c3nccs3)N2C1)c1cccc(-c2cccnc2)n1 [Example 378]
CC50 at 3 days: > 25 µM
--
COMPOUND: Cn1ccc(C2(O)CCN(S(=O)(=O)N[C@H]3CC4=C(c5ccn(C(F)F)n5)[C@H](c5ccc(F)cc5Cl)N=C(c5nccs5)N4C3)CC2)n1 [Example 304]
CC50 at 3 days: > 25 µM

---

Assay: Compound toxicity, ATPLite total ATP levels
Assay type: cell-based
Settings: human, HepG2 cells; concentration reducing total ATP levels by 50% relative to no drug controls; ATPLite three days after compound addition

COMPOUND: Nc1cccc(S(=O)(=O)N[C@H]2CC3=C(c4ccn(C(F)F)n4)[C@H](c4ccc(F)cc4Cl)N=C(c4nccs4)N3C2)n1
CC50 at 3 days: > 25 µM
//
COMPOUND: C[C@]1(NS(=O)(=O)C2CCC(O)(c3ccccn3)CC2)CC2=C(c3ccn(C(F)F)n3)[C@H](c3ccc(F)cc3Cl)N=C(c3nccs3)N2C1 (stereo partly drawn)
CC50 at 3 days: 10 to 25 µM
//
COMPOUND: O=S(=O)(N[C@H]1CC2=C(c3ccn(C(F)F)n3)[C@H](c3ccc(F)cc3Cl)N=C(c3nccs3)N2C1)[C@H]1CC[C@](O)(CO)CC1
CC50 at 3 days: > 25 µM

---

Quick reference: CC50 at 3 days of the listed items.
Test: Compound toxicity, ATPLite total ATP levels
Assay type: cell-based
Conditions: human, HepG2 cells; concentration reducing total ATP levels by 50% relative to no drug controls; ATPLite three days after compound addition
READOUT LABEL: CC50 at 3 days

MOLECULAR STRING: O=C(N[C@H]1CC2=C(c3ccn(C(F)F)n3)[C@H](c3ccc(F)cc3Cl)N=C(c3nccs3)N2C1)c1ccccn1
READING: 10 to 25 µM
--
MOLECULAR STRING: O=C1CCC(S(=O)(=O)N[C@H]2CC3=C(c4ccn(C(F)F)n4)[C@H](c4ccc(F)cc4Cl)N=C(c4nccs4)N3C2)CC1
READING: > 25 µM
--
MOLECULAR STRING: O=S(=O)(N[C@H]1CC2=C(c3ccn(C(F)F)n3)[C@H](c3ccc(F)cc3Cl)N=C(c3nccs3)N2C1)N1CCC(O)(c2ccccc2)CC1
READING: 10 to 25 µM
--
MOLECULAR STRING: Cc1ccc(S(=O)(=O)N[C@H]2CC3=C(c4ccn(C(F)F)n4)[C@H](c4ccc(F)cc4Cl)N=C(c4nccs4)N3C2)cn1
READING: > 25 µM
--
MOLECULAR STRING: O=C1OCCN1S(=O)(=O)N[C@H]1CC2=C(c3ccn(C(F)F)n3)[C@H](c3ccc(F)cc3Cl)N=C(c3nccs3)N2C1
READING: > 25 µM
--
MOLECULAR STRING: O=S(=O)(N[C@H]1CC2=C(c3ccn(C(F)F)n3)[C@H](c3ccc(F)cc3Cl)N=C(c3nccs3)N2C1)N1CCC[C@H](O)C1
READING: > 25 µM
--
MOLECULAR STRING: O=S(=O)(N[C@H]1CC2=C(c3ccn(C(F)F)n3)[C@H](c3ccc(F)cc3Cl)N=C(c3nccs3)N2C1)N1CCC(O)(c2ncccn2)CC1
READING: > 25 µM
--
MOLECULAR STRING: O=S(=O)(N[C@H]1CC2=C(c3ccn(C(F)F)n3)[C@H](c3ccc(F)cc3Cl)N=C(c3nccs3)N2C1)N1CC(O)(c2ccccn2)C1
READING: > 25 µM
--
MOLECULAR STRING: O=S(=O)(N[C@H]1CC2=C(c3ccn(C(F)F)n3)[C@H](c3ccc(F)cc3Cl)N=C(c3nccs3)N2C1)N[C@H](c1ccccn1)C1CC1
READING: > 25 µM
--
MOLECULAR STRING: O=S(=O)(N[C@H]1CC2=C(c3ccn(C(F)F)n3)[C@H](c3ccc(F)cc3Cl)N=C(c3nccs3)N2C1)c1ccc(-c2cccnc2)cn1
READING: > 25 µM
--
MOLECULAR STRING: CC(C)[C@H](NS(=O)(=O)N[C@H]1CC2=C(c3ccn(C(F)F)n3)[C@H](c3ccc(F)cc3Cl)N=C(c3nccs3)N2C1)c1ccccn1
READING: > 25 µM
--
MOLECULAR STRING: O=S(=O)(N[C@H]1CC2=C(c3ccn(C(F)F)n3)[C@H](c3ccc(F)cc3Cl)N=C(c3nccs3)N2C1)C1(C[C@@H](O)CO)CC1
READING: > 25 µM
